Each recorded value in this set is attributed to patent US8426437B2.

Each item that follows carries a reported IC50.
molecular target: RET (Homo sapiens, UniProt P07949); assay: Inhibition of RET kinase activity, recombinant RET method (Kinase-Glo); conditions: RET 2 μg/ml, poly-EY4 substrate, 20 μM ATP, two hours at 30° C.
Sequence (P07949 29-1114): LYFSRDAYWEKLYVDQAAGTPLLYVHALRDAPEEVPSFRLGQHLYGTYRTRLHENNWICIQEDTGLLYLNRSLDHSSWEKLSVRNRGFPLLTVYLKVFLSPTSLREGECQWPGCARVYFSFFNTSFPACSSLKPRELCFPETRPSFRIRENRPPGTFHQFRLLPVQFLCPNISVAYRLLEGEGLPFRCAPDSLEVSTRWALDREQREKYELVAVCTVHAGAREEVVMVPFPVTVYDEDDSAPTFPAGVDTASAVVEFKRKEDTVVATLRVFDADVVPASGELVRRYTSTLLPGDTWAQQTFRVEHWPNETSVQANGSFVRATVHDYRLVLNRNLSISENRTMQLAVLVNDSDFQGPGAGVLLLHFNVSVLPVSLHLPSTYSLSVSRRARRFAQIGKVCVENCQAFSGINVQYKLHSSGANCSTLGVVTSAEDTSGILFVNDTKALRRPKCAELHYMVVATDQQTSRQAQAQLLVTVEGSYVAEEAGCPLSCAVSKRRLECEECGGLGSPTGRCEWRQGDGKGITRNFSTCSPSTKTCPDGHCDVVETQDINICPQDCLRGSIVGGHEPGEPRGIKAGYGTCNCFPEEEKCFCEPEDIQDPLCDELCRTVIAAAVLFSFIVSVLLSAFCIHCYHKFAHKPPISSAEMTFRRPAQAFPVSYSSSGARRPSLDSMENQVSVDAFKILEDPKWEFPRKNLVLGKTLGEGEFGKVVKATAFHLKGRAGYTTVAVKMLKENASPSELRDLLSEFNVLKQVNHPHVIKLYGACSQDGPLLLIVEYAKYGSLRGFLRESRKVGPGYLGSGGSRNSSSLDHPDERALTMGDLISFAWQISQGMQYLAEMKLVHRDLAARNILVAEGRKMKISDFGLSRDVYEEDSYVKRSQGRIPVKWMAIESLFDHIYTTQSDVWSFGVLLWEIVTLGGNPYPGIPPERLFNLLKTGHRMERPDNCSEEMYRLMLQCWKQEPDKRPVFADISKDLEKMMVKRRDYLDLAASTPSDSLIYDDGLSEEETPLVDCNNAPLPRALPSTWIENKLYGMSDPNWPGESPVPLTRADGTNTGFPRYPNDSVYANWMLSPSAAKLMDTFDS
Structures can show the parent of a compound that is named as a salt.

Previously resolved entries follow.
>  <compound>
COC(=O)c1c[nH]c2c(=O)[nH]c3ccc(S(=O)(=O)NN4CCN(C)CC4)cc3c12 [Compound 193]

>  <assay target>
RET (Homo sapiens, UniProt P07949)

>  <IC50>
1 to 10 µM

$$$$
>  <compound>
C#CCN(C[C@@H]1CCCN1C)S(=O)(=O)c1ccc2[nH]c(=O)c3[nH]cc(C(=O)OCCC)c3c2c1 [Compound 151]

>  <assay target>
RET (Homo sapiens, UniProt P07949)

>  <IC50>
0.1 to 1 µM

$$$$
>  <compound>
CCOC(=O)c1c[nH]c2c(=O)[nH]c3ccc(/C=C/C(=O)NCc4ccccc4)cc3c12 [Compound 68]

>  <assay target>
RET (Homo sapiens, UniProt P07949)

>  <IC50>
1 to 10 µM

$$$$

Returns the measured IC50 for the input compound. Input: CCOC(=O)c1c[nH]c2c(=O)[nH]c3ccc(-c4cccc(N)c4)cc3c12 [Compound 234] 0.1 to 1 µM

Try the compound CCCOC(=O)c1c[nH]c2c(=O)[nH]c3ccc(S(=O)(=O)N(Cc4c[nH]cn4)C4CC4)cc3c12 [Compound 143, hydrochloride] 0.1 to 1 µM

----------
target: RET (Homo sapiens); experiment: Inhibition of RET kinase activity, recombinant RET method (Kinase-Glo); settings: RET 2 μg/ml, poly-EY4 substrate, 20 μM ATP, two hours at 30° C.
pIC50: −log10 of the molar value. Where a name gives a salt, the structure may show the parent alone.
experimental readout: pIC50

Previously resolved entries follow.
>  <compound>
CCOC(=O)c1c[nH]c2c(=O)[nH]c3ccc(S(=O)(=O)Nc4ccccc4OC)cc3c12 [Compound 7]

>  <result>
6.00 to 7.00

$$$$
>  <compound>
CCCOC(=O)c1c[nH]c2c(=O)[nH]c3ccc(S(=O)(=O)N(C[C@H]4CCCN4)C4CC4)cc3c12 [Compound 148, hydrochloride]

>  <result>
6.00 to 7.00

$$$$
>  <compound>
CCOC(=O)c1c[nH]c2c(=O)[nH]c3ccc(-c4ccnc(N(C)CCN(C)C)n4)cc3c12 [Compound 269, formate]

>  <result>
5.00 to 6.00

$$$$
>  <compound>
CCCOC(=O)c1c[nH]c2c(=O)[nH]c3ccc(S(=O)(=O)N(CCNC(C)C)C4CC4)cc3c12 [Compound 142, hydrochloride]

>  <result>
6.00 to 7.00

$$$$
>  <compound>
CCOC(=O)c1c[nH]c2c(=O)[nH]c3ccc(-c4cccc(NC(=O)OC(C)(C)C)c4)cc3c12 [Compound 233]

>  <result>
5.00 to 6.00

$$$$
>  <compound>
C#CCN(CCN(C(=O)OC(C)(C)C)C(C)C)S(=O)(=O)c1ccc2[nH]c(=O)c3[nH]cc(C(=O)OCCC)c3c2c1 [Compound 159]

>  <result>
5.00 to 6.00

$$$$

Now examine the next entry.
Returns the measured pIC50 for the input compound. Input: COC(=O)c1c[nH]c2c(=O)[nH]c3ccc(S(=O)(=O)NN4CC5CCCC5C4)cc3c12 (stereo not drawn) [Compound 192] 5.00 to 6.00
